biological target: Nuclear receptor ROR-gamma (Homo sapiens, UniProt P51449); test: Antagonist activity at full-length RORgamma (unknown origin) expressed in 293T cells after 24 hrs by luciferase reporter gene assay; type: cell-based
Sequence (P51449 whole entry): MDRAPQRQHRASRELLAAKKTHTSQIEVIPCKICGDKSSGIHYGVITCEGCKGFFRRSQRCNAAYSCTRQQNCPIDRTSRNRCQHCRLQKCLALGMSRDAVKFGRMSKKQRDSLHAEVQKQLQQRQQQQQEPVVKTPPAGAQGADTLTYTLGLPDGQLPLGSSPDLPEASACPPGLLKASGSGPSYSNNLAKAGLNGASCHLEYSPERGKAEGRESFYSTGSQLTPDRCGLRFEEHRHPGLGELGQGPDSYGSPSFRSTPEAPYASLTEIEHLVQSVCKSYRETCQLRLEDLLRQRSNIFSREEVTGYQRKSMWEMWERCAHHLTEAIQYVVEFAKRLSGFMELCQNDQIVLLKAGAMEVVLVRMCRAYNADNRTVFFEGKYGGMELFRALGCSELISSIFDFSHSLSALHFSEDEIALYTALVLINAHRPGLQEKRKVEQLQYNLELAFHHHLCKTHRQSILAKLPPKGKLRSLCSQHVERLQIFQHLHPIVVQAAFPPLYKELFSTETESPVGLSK
Give measured pIC50 for each item. Keep answers brief.
pIC50 field: float, defined as -log10 of concentration (mol/L).

(Q) Reported pIC50, compound `CCN1C(=O)c2cccc3c(S(=O)(=O)NCC4CCN(C(C)=O)CC4)ccc1c23` : ____
(A) 6.23

(Q) Repeat with `CCN1C(=O)c2cccc3c(S(=O)(=O)N(C(=O)c4ccncc4)c4ccc(OC)cc4)ccc1c23`
(A) 7.10
